system: HeLa Kyoto; assay: melting temperature (median over replicates), in situ; higher = more thermally stable; settings: cell cycle stage: G1/S
assay_readout: melting temperature (°C)
The response must be a number in °C with no trailing unit.

Q: Would you kindly share the measured melting temperature for MLGMIKNSLFGSVETWPWQVLSKGDKEEVAYEERACEGGKFATVEVTDKPVDEALREAMPKVAKYAGGTNDKGIGMGMTVPISFAVFPNEDGSLQKKLKVWFRIPNQFQSDPPAPSDKSVKIEEREGITVYSMQFGGYAKEADYVAQATRLRAALEGTATYRGDIYFCTGYDPPMKPYGRRNEIWLLKT [HEBP1] ?
A: 52.9

Q: Would you kindly share the measured melting temperature for MDKLKKVLSGQDTEDRSGLSEVVEASSLSWSTRIKGFIACFAIGILCSLLGTVLLWVPRKGLHLFAVFYTFGNIASIGSTIFLMGPVKQLKRMFEPTRLIATIMVLLCFALTLCSAFWWHNKGLALIFCILQSLALTWYSLSFIPFARDAVKKCFAVCLA [SFT2D2] ?
A: 57.4

Q: Would you kindly share the measured melting temperature for MEAVVNLYQEVMKHADPRIQGYPLMGSPLLMTSILLTYVYFVLSLGPRIMANRKPFQLRGFMIVYNFSLVALSLYIVYEFLMSGWLSTYTWRCDPVDYSNSPEALRMVRVAWLFLFSKFIELMDTVIFILRKKDGQVTFLHVFHHSVLPWSWWWGVKIAPGGMGSFHAMINSSVHVIMYLYYGLSAFGPVAQPYLWWKKHMTAIQLIQFVLVSLHISQYYFMSSCNYQYPVIIHLIWMYGTIFFMLFSNFWYHSYTKGKRLPRALQQNGAPGIAKVKAN [ELOVL1] ?
A: 52.8

----------
Would you kindly list thermal stability score for each of these sequences?
test system: HeLa Kyoto; assay: thermal stability score vs G1/S (z-score of summed log2 fold changes over temperatures); higher = more thermally stable than in G1/S; conditions: cell cycle stage: mitosis
The response must contain the number and no unit.

Q: Short answer please: thermal stability score, HeLa Kyoto, entry MSGESARSLGKGSAPPGPVPEGSIRIYSMRFCPFAERTRLVLKAKGIRHEVININLKNKPEWFFKKNPFGLVPVLENSQGQLIYESAITCEYLDEAYPGKKLLPDDPYEKACQKMILELFSKVPSLVGSFIRSQNKEDYAGLKEEFRKEFTKLEEVLTNKKTTFFGGNSISMIDYLIWPWFERLEAMKLNECVDHTPKLKLWMAAMKEDPTVSALLTSEKDWQGFLELYLQNSPEACDYGL [GSTO1]
A: -0.166

Q: Short answer please: thermal stability score, HeLa Kyoto, entry MAETEALSKLREDFRMQNKSVFILGASGETGRVLLKEILEQGLFSKVTLIGRRKLTFDEEAYKNVNQEVVDFEKLDDYASAFQGHDVGFCCLGTTRGKAGAEGFVRVDRDYVLKSAELAKAGGCKHFNLLSSKGADKSSNFLYLQVKGEVEAKVEELKFDRYSVFRPGVLLCDRQESRPGEWLVRKFFGSLPDSWASGHSVPVVTVVRAMLNNVVRPRDKQMELLENKAIHDLGKAHGSLKP [HTATIP2]
A: 4.75

----------
test system: HeLa Kyoto; experiment: solubility in G1/S (NP-40 vs SDS abundance) (log2 ratio); higher = more soluble; conditions: cell cycle stage: G1/S
Would you kindly list solubility in G1/S (log2) for each of these sequences?
The response must contain the number and no unit.

Q: Would you kindly share the measured solubility in G1/S (log2) for MDNSGKEAEAMALLAEAERKVKNSQSFFSGLFGGSSKIEEACEIYARAANMFKMAKNWSAAGNAFCQAAQLHLQLQSKHDAATCFVDAGNAFKKADPQEAINCLMRAIEIYTDMGRFTIAAKHHISIAEIYETELVDIEKAIAHYEQSADYYKGEESNSSANKCLLKVAGYAALLEQYQKAIDIYEQVGTNAMDSPLLKYSAKDYFFKAALCHFCIDMLNAKLAVQKYEELFPAFSDSRECKLMKKLLEAHEEQNVDSYTESVKEYDSISRLDQWLTTMLLRIKKTIQGDEEDLR [NAPA] ?
A: 0.324

Q: Would you kindly share the measured solubility in G1/S (log2) for MPVKKKRKSPGVAAAVAEDGGLKKCKISSYCRSQPPARLISGEEHFSSKKCLAWFYEYAGPDEVVGPEGMEKFCEDIGVEPENIIMLVLAWKLEAESMGFFTKEEWLKGMTSLQCDCTEKLQNKFDFLRSQLNDISSFKNIYRYAFDFARDKDQRSLDIDTAKSMLALLLGRTWPLFSVFYQYLEQSKYRVMNKDQWYNVLEFSRTVHADLSNYDEDGAWPVLLDEFVEWQKVRQTS [DCUN1D5] ?
A: 0.214

Q: Would you kindly share the measured solubility in G1/S (log2) for MVSPATRKSLPKVKAMDFITSTAILPLLFGCLGVFGLFRLLQWVRGKAYLRNAVVVITGATSGLGKECAKVFYAAGAKLVLCGRNGGALEELIRELTASHATKVQTHKPYLVTFDLTDSGAIVAAAAEILQCFGYVDILVNNAGISYRGTIMDTTVDVDKRVMETNYFGPVALTKALLPSMIKRRQGHIVAISSIQGKMSIPFRSAYAASKHATQAFFDCLRAEMEQYEIEVTVISPGYIHTNLSVNAITADGSRYGVMDTTTAQGRSPVEVAQDVLAAVGKKKKDVILADLLPSLAVYLRTLAPGLFFSLMASRARKERKSKNS [DHRS7B] ?
A: -0.22

----------
Would you kindly list thermal stability score for each of these sequences?
tested on: HeLa Kyoto; assay: thermal stability score vs G1/S (z-score of summed log2 fold changes over temperatures); higher = more thermally stable than in G1/S; details: cell cycle stage: early G1 (4.5 h after nocodazole release)

Q: Would you kindly share the measured thermal stability score for MTHSLVCPETVSRVSSVLNRNTRQFGKKHLFDQDEETCWNSDQGPSQWVTLEFPQLIRVSQLQIQFQGGFSSRRGCLEGSQGTQALHKIVDFYPEDNNSLQTFPIPAAEVDRLKVTFEDATDFFGRVVIYHLRVLGEKV [NR2C2AP] ?
A: 0.143

Q: Would you kindly share the measured thermal stability score for MAELDIGQHCQVEHCRQRDFLPFVCDDCSGIFCLEHRSRESHGCPEVTVINERLKTDQHTSYPCSFKDCAERELVAVICPYCEKNFCLRHRHQSDHECEKLEIPKPRMAATQKLVKDIIDSKTGETASKRWKGAKNSETAAKVALMKLKMHADGDKSLPQTERIYFQVFLPKGSKEKSKPMFFCHRWSIGKAIDFAASLARLKNDNNKFTAKKLRLCHITSGEALPLDHTLETWIAKEDCPLYNGGNIILEYLNDEEQFCKNVESYLE [ZFAND1] ?
A: -0.0516

Q: Would you kindly share the measured thermal stability score for MGRSRSRSPRRERRRSRSTSRERERRRRERSRSRERDRRRSRSRSPHRRRSRSPRRHRSTSPSPSRLKERRDEEKKETKETKSKERQITEEDLEGKTEEEIEMMKLMGFASFDSTKGKKVDGSVNAYAINVSQKRKYRQYMNRKGGFNRPLDFIA [SNRNP27] ?
A: 1.03

Q: Would you kindly share the measured thermal stability score for MDPRKVNELRAFVKMCKQDPSVLHTEEMRFLREWVESMGGKVPPATQKAKSEENTKEEKPDSKKVEEDLKADEPSSEESDLEIDKEGVIEPDTDAPQEMGDENAEITEEMMDQANDKKVAAIEALNDGELQKAIDLFTDAIKLNPRLAILYAKRASVFVKLQKPNAAIRDCDRAIEINPDSAQPYKWRGKAHRLLGHWEEAAHDLALACKLDYDEDASAMLKEVQPRAQKIAEHRRKYERKREEREIKERIERVKKAREEHERAQREEEARRQSGAQYGSFPGGFPGGMPGNFPGGMPGMGGGMPGMAGMPGLNEILSDPEVLAAMQDPEVMVAFQDVAQNPANMSKYQSNPKVMNLISKLSAKFGGQA [ST13] ?
A: 2.23

Q: Would you kindly share the measured thermal stability score for MAERQEEQRGSPPLRAEGKADAEVKLILYHWTHSFSSQKVRLVIAEKALKCEEHDVSLPLSEHNEPWFMRLNSTGEVPVLIHGENIICEATQIIDYLEQTFLDERTPRLMPDKESMYYPRVQHYRELLDSLPMDAYTHGCILHPELTVDSMIPAYATTRIRSQIGNTESELKKLAEENPDLQEAYIAKQKRLKSKLLDHDNVKYLKKILDELEKVLDQVETELQRRNEETPEEGQQPWLCGESFTLADVSLAVTLHRLKFLGFARRNWGNGKRPNLETYYERVLKRKTFNKVLGHVNNILISAVLPTAFRVAKKRAPKVLGTTLVVGLLAGVGYFAFMLFRKRLGSMILAFRPRPNYF [GDAP1] ?
A: 1.45

Q: Would you kindly share the measured thermal stability score for MPHRKERPSGSSLHTHGSTGTAEGGNMSRLSLTRSPVSPLAAQGIPLPAQLTKSNAPVHIDVGGHMYTSSLATLTKYPDSRISRLFNGTEPIVLDSLKQHYFIDRDGEIFRYVLSFLRTSKLLLPDDFKDFSLLYEEARYYQLQPMVRELERWQQEQEQRRRSRACDCLVVRVTPDLGERIALSGEKALIEEVFPETGDVMCNSVNAGWNQDPTHVIRFPLNGYCRLNSVQVLERLFQRGFSVAASCGGGVDSSQFSEYVLCREERRPQPTPTAVRIKQEPLD [KCTD15] ?
A: -2.02

Q: Would you kindly share the measured thermal stability score for MNCRSEVLEVSVEGRQVEEAMLAVLHTVLLHRSTGKFHYKKEGTYSIGTVGTQDVDCDFIDFTYVRVSSEELDRALRKVVGEFKDALRNSGGDGLGQMSLEFYQKKKSRWPFSDECIPWEVWTVKVHVVALATEQERQICREKVGEKLCEKIINIVEVMNRHEYLPKMPTQSEVDNVFDTGLRDVQPYLYKISFQITDALGTSVTTTMRRLIKDTLAL [ATG101] ?
A: 0.111

Q: Would you kindly share the measured thermal stability score for MEAVVNLYQEVMKHADPRIQGYPLMGSPLLMTSILLTYVYFVLSLGPRIMANRKPFQLRGFMIVYNFSLVALSLYIVYEFLMSGWLSTYTWRCDPVDYSNSPEALRMVRVAWLFLFSKFIELMDTVIFILRKKDGQVTFLHVFHHSVLPWSWWWGVKIAPGGMGSFHAMINSSVHVIMYLYYGLSAFGPVAQPYLWWKKHMTAIQLIQFVLVSLHISQYYFMSSCNYQYPVIIHLIWMYGTIFFMLFSNFWYHSYTKGKRLPRALQQNGAPGIAKVKAN [ELOVL1] ?
A: 2.04

Q: Would you kindly share the measured thermal stability score for MLYLIGLGLGDAKDITVKGLEVVRRCSRVYLEAYTSVLTVGKEALEEFYGRKLVVADREEVEQEADNILKDADISDVAFLVVGDPFGATTHSDLVLRATKLGIPYRVIHNASIMNAVGCCGLQLYKFGETVSIVFWTDTWRPESFFDKVKKNRQNGMHTLCLLDIKVKEQSLENLIKGRKIYEPPRYMSVNQAAQQLLEIVQNQRIRGEEPAVTEETLCVGLARVGADDQKIAAGTLRQMCTVDLGEPLHSLIITGGSIHPMEMEMLSLFSIPENSSESQSINGL [DPH5] ?
A: 1.75

Q: Would you kindly share the measured thermal stability score for MATEGDVELELETETSGPERPPEKPRKHDSGAADLERVTDYAEEKEIQSSNLETAMSVIGDRRSREQKAKQEREKELAKVTIKKEDLELIMTEMEISRAAAERSLREHMGNVVEALIALTN [HYPK] ?
A: -6.39

Q: Would you kindly share the measured thermal stability score for MSNRVVCREASHAGSWYTASGPQLNAQLEGWLSQVQSTKRPARAIIAPHAGYTYCGSCAAHAYKQVDPSITRRIFILGPSHHVPLSRCALSSVDIYRTPLYDLRIDQKIYGELWKTGMFERMSLQTDEDEHSIEMHLPYTAKAMESHKDEFTIIPVLVGALSESKEQEFGKLFSKYLADPSNLFVVSSDFCHWGQRFRYSYYDESQGEIYRSIEHLDKMGMSIIEQLDPVSFSNYLKKYHNTICGRHPIGVLLNAITELQKNGMNMSFSFLNYAQSSQCRNWQDSSVSYAAGALTVH [MEMO1] ?
A: -0.361
